Tested on: oats coleoptile
Test: Growth inhibition in oats coleoptile sections (Example 4, Table 1)
Parameters: species or system Avena sativa L.
Details: Avena sativa, 20 h, read-out: Growth Inhibition in oats coleoptile (concentration giving 50% inhibition), 5 mm sections, 25° C., 20 hours, dark
Below, each of the compounds is paired with its reported IC50 value.

>  <COMPOUND>
CC(=O)c1cc2ccccc2c2cc(Cl)ccc12 [Compound 14, 6-chloro-9-acetylphenanthrene]

>  <RECORDED MEASUREMENT>
70 µg/mL

$$$$
>  <COMPOUND>
COc1cc(O)c2c(ccc3cc(OC)c(OC)cc32)c1 [Compound 10, 4-hydroxy-2,6,7-trimethoxyphenanthrene]

>  <RECORDED MEASUREMENT>
90 µg/mL

$$$$
>  <COMPOUND>
COc1cc(OC)c2c(ccc3ccc(O)cc32)c1 [Compound 9, 2,4-dimethoxy-6-hydroxyphenanthrene]

>  <RECORDED MEASUREMENT>
130 µg/mL

$$$$

We next turn to a different compound, shown below.
Sample COc1cc2ccc3cc(O)c(O)cc3c2c(O)c1OC [Compound 12] — what was its IC50?
120 µg/mL
